Test: Aqueous Hydrolysis Stability Assay
Format: physicochemical
Details: 50 mM HEPES buffer pH 7.5; HEPES pH 7.5, room temperature; read-out: T1/2 Aq Stability
Experimental Readout: half-life at 100 µM (min)
Unit min implied. Number only.

Reported half-life at 100 µM ( CC[C@H]1OC(=O)[C@H](C)[C@@H](O[C@H]2C[C@@](C)(OC)[C@@H](O)[C@H](C)O2)[C@H](C)[C@@H](O[C@@H]2O[C@H](C)C[C@H](N(C)C)[C@H]2OC(=O)COCCOCCOCCOCCO)[C@](C)(O)C[C@@H](C)CN(C)[C@H](C)[C@@H](O)[C@]1(C)O ) = 5.7

----------
Experiment: Rabbit Cornea Homogenate Stability Assay (Rabbit Cornea Esterase Assay)
Assay type: in vitro ADME
Conditions: New Zealand White, pH 7.5, Rabbit Cornea Homogenate 0.45 mg/ml total protein, 37° C., half-life of parent conjugate, read-out: T1/2 Esterase (min) (0.45 mg/ml Homogenate)
Give half-life at 5 µM for every item shown.

Reported half-life at 5 µM ( CC[C@H]1OC(=O)[C@H](C)[C@@H](O[C@H]2C[C@@](C)(OC)[C@@H](O)[C@H](C)O2)[C@H](C)[C@@H](O[C@@H]2O[C@H](C)C[C@H](N(C)C)[C@H]2OC(=O)SC[C@H](NC(C)=O)C(=O)OC)[C@](C)(O)C[C@@H](C)CN(C)[C@H](C)[C@@H](O)[C@]1(C)O ) = > 120 min

Reported half-life at 5 µM ( CC[C@H]1OC(=O)[C@H](C)[C@@H](O[C@H]2C[C@@](C)(OC)[C@@H](O)[C@H](C)O2)[C@H](C)[C@@H](O[C@@H]2O[C@H](C)C[C@H](N(C)C)[C@H]2OC(=O)Cc2ccc(OC)cc2)[C@](C)(O)C[C@@H](C)CN(C)[C@H](C)[C@@H](O)[C@]1(C)O ) = 39 min

Reported half-life at 5 µM ( CC[C@H]1OC(=O)[C@H](C)[C@@H](O[C@H]2C[C@@](C)(OC)[C@@H](OC(C)=O)[C@H](C)O2)[C@H](C)[C@@H](O[C@@H]2O[C@H](C)C[C@H](N(C)C)[C@H]2O)[C@](C)(O)C[C@@H](C)CN(C)[C@H](C)[C@@H](O)[C@]1(C)O ) = > 120 min

Reported half-life at 5 µM ( CC[C@H]1OC(=O)[C@H](C)[C@@H](O[C@H]2C[C@@](C)(OC)[C@@H](O)[C@H](C)O2)[C@H](C)[C@@H](O[C@@H]2O[C@H](C)C[C@H](N(C)C)[C@H]2O)[C@](C)(O)C[C@@H](C)CN(C)[C@H](C)[C@@H](OC(C)=O)[C@]1(C)O ) = > 120 min

Cited source for all entries: patent US11643429B2
